Tested on: Staphylococcus aureus 12598
Test: Bacterial growth assay in LB liquid media, S. aureus
Assay type: cell-based
Conditions: Staphylococcus aureus, 12598, read-out: IC50 μM inhibitor, inhibition of S. aureus growth
Experimental: 100 μL of LB containing E. coli 1655, E. coli 4213, or S. aureus at A ˜0.05 OD 600 was aliquoted in 96 well plates. One μL of compound in DMSO was added to final concentrations given. Plates were incubated at 37° C. with shaking at 250 RPM. Rate of growth was calculated by determining the average change in OD/hour that took place between hours 3 and 7 (log growth phase). The graphs shown herein are plots of this bacterial growth rate (change in OD/h) against inhibitor concentration in μM.
measured attribute: IC50 (µM)

[
  {
    "compound": "O=[N+]([O-])c1ccc(Oc2cc(C(F)(F)F)ccc2Cl)cc1O [Compound 37]",
    "measured attribute": "IC50",
    "unit annotation": "µM",
    "endpoint result": 2.5
  }
]
